Experiment: Tet plasma concentration in the mIL-12 time course study
Conditions: female, C57Bl/6, mouse, in vivo, 30 mg/kg
attribute.measured: concentration at 8 h (nM)
A number alone suffices; assume nM.

Quickly give me recorded concentration at 8 h for CN(C)[C@@H]1C(O)=C(C(N)=O)C(=O)[C@@]2(O)C(O)=C3C(=O)c4c(O)cccc4[C@@](C)(O)[C@H]3C[C@@H]12 [Tet, tetracycline] 750

###

Test: Tet plasma concentration in the mIL-12 time course study
Conditions: female, C57Bl/6, mouse, in vivo, 10 mg/kg
attribute.measured: concentration at 8 h
A bare number is not enough; add the unit after it.

Tell me measured concentration at 8 h for CN(C)[C@@H]1C(O)=C(C(N)=O)C(=O)[C@@]2(O)C(O)=C3C(=O)c4c(O)cccc4[C@@](C)(O)[C@H]3C[C@@H]12 please. 0.1 µM

Ref: patent US20240076689A1
